Record form. Attribute: MIC. Fill in for each entry.
System: Staphylococcus aureus
protocol: Antibacterial activity against Staphylococcus aureus 209P incubated for 20 hrs by liquid microdilution method
Assay type: functional
Square brackets hold non-standard residues; d marks the D form. Peptide text beside a SMILES is read from it. Orn = NCCC[C@H](N)C(=O)O
Give just the numeric value; µg/mL need not be written.

Q: Suppose we examine the compound CC(C)C[C@@H]1NC(=O)[C@H](CCCN)NC(=O)[C@H](C(C)C)NC(=O)[C@@H]2C[C@@H](N[C@@H](Cc3ccccc3)C(=O)O)CN2C(=O)[C@@H](Cc2ccccc2)NC(=O)[C@H](CC(C)C)NC(=O)[C@H](CCCN)NC(=O)[C@H](C(C)C)NC(=O)[C@@H]2C[C@@H](N[C@@H](Cc3ccccc3)C(=O)O)CN2C(=O)[C@@H](Cc2ccccc2)NC1=O ; what MIC value has been reported?
A: 8

Q: Suppose we examine the compound CC(C)C[C@@H]1NC(=O)[C@H](CCCN)NC(=O)[C@H](C(C)C)NC(=O)[C@@H]2CCCN2C(=O)[C@@H](Cc2ccccc2)NC(=O)[C@H](CC(C)C)NC(=O)[C@H](CCCN)NC(=O)[C@H](C(C)C)NC(=O)[C@@H]2CCCN2C(=O)[C@@H](Cc2ccccc2)NC1=O (cyclo(V[Orn]L[dF]PV[Orn]L[dF]P)) ; what MIC value has been reported?
A: 4

Q: Suppose we examine the compound CC(C)C[C@@H]1NC(=O)[C@H](CCCN)NC(=O)[C@H](C(C)C)NC(=O)[C@@H]2C[C@@H](N[C@@H](CCCCN)C(=O)O)CN2C(=O)[C@@H](Cc2ccccc2)NC(=O)[C@H](CC(C)C)NC(=O)[C@H](CCCN)NC(=O)[C@H](C(C)C)NC(=O)[C@@H]2C[C@@H](N[C@@H](CCCCN)C(=O)O)CN2C(=O)[C@@H](Cc2ccccc2)NC1=O ; what MIC value has been reported?
A: 8

Q: Suppose we examine the compound CC(C)C[C@@H]1NC(=O)[C@H](CCCN)NC(=O)[C@H](C(C)C)NC(=O)[C@@H]2C[C@@H](N)CN2C(=O)[C@@H](Cc2ccccc2)NC(=O)[C@H](CC(C)C)NC(=O)[C@H](CCCN)NC(=O)[C@H](C(C)C)NC(=O)[C@@H]2C[C@@H](N)CN2C(=O)[C@@H](Cc2ccccc2)NC1=O ; what MIC value has been reported?
A: 32

---

protocol: Haemolytic activity in human erythrocytes at 100 ug/ml after 30 mins relative to control
Assay type: ADME, cell-based, Erythrocyte
condition description: read-out: Activity
Numbered stars: 1 amine (or outer) side, 2 acyl side, 3 side chain; on linkers, the order of the positions; unused ones are H or OH. Square brackets hold non-standard residues; d marks the D form. Peptide text beside a SMILES is read from it. X1 = Cc1nc([C@@H](Cc2ccccc2)N[*:1])c(C(=O)[*:2])s1; Orn = NCCC[C@H](N)C(=O)O
Record form. Attribute: hemolysis at 0.5 h, 100 ug/ml. Fill in for each entry.
Give just the numeric value; % need not be written.

Q: Suppose we examine the molecule CC(C)C[C@@H]1NC(=O)[C@H](CCCN)NC(=O)[C@H](C(C)C)NC(=O)[C@@H]2CCCN2C(=O)[C@@H](Cc2ccccc2)NC(=O)[C@H](CC(C)C)NC(=O)[C@H](CCCN)NC(=O)[C@H](C(C)C)NC(=O)[C@@H]2CCCN2C(=O)[C@@H](Cc2ccccc2)NC1=O (cyclo(L[dF]PV[Orn]L[dF]PV[Orn])) ; what hemolysis at 0.5 h, 100 ug/ml value has been reported?
A: 80

Q: Suppose we examine the molecule Cc1nc2c(s1)C(=O)N[C@@H](C(C)C)C(=O)N[C@@H](CCCN)C(=O)N[C@@H](CC(C)C)C(=O)N[C@H](Cc1ccccc1)c1nc(C)sc1C(=O)N[C@@H](C(C)C)C(=O)N[C@@H](CCCN)C(=O)N[C@@H](CC(C)C)C(=O)N[C@@H]2Cc1ccccc1 (cyclo(L[X1]V[Orn]L[X1]V[Orn])) ; what hemolysis at 0.5 h, 100 ug/ml value has been reported?
A: 14
